target: Adenosine receptor A2a (Homo sapiens, UniProt P29274); also: assay procedure not described here
Sequence (P29274 whole entry): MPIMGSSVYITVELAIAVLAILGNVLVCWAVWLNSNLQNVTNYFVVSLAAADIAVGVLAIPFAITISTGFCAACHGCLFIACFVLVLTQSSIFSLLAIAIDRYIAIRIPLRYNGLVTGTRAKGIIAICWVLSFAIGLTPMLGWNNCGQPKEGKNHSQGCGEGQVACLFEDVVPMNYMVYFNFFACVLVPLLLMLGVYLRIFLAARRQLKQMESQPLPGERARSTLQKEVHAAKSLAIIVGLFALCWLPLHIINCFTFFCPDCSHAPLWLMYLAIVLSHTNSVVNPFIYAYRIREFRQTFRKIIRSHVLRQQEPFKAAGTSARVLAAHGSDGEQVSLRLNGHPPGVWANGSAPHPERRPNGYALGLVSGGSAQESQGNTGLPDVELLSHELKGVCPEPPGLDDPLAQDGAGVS
Entries and their measured AC50 follow.

1) CCOC(=O)[N-]c1cn(N2CCOCC2)n[o+]1 [MOLSIDOMINE] = > 30 µM
2) Cc1nnc2n1-c1ccc(Cl)cc1C(c1ccccc1Cl)=NC2 [TRIAZOLAM] = > 30 µM
3) Cc1cccc(Nc2ccccc2C(=O)O)c1C [MEFENAMIC ACID] = > 10 µM
4) CO[C@H]1C[C@@H]2CC[C@@H](C)[C@@](O)(O2)C(=O)C(=O)N2CCCC[C@H]2C(=O)O[C@H]([C@H](C)C[C@@H]2CC[C@@H](O)[C@H](OC)C2)CC(=O)[C@H](C)/C=C(\C)[C@@H](O)[C@@H](OC)C(=O)[C@H](C)C[C@H](C)/C=C/C=C/C=C/1C [SIROLIMUS] = > 30 µM
5) CCC(CC)(CC(=O)Nc1cccc(/C=C/c2nc(C3CCC3)cs2)c1)C(=O)O = > 30 µM
6) C[C@H]1CNCCc2ccc(Cl)cc21 [LORCASERIN] = > 30 µM
7) N#Cc1ccc([C@H]2CCc3cncn32)c(F)c1 [OSILODROSTAT] = > 10 µM
8) CN1C(C(=O)Nc2ccccn2)=C(O)c2sc(Cl)cc2S1(=O)=O [LORNOXICAM] = > 30 µM
9) CCCSc1ccc2nc(NC(=O)OC)[nH]c2c1 [ALBENDAZOLE] = > 30 µM
10) Cc1cccc(C(C)c2cnc[nH]2)c1C (stereo unspecified) [MEDETOMIDINE] = > 30 µM

Find the measured AC50: item COc1ccccc1OCCNCC(O)c1ccc(C)c(S(N)(=O)=O)c1 (stereo unspecified) [AMOSULALOL] , target or system Adenosine receptor A2a (Homo sapiens, UniProt P29274). Also: assay procedure not described here.
> 30 µM

Find the measured AC50: item C[C@H](N)[C@H](O)c1cccc(O)c1 [METARAMINOL] , target or system Adenosine receptor A2a (Homo sapiens, UniProt P29274). Also: assay procedure not described here.
> 10 µM

Find the measured AC50: item CC(C)(C)c1cc(C(C)(C)C)c(NC(=O)c2c[nH]c3ccccc3c2=O)cc1O [IVACAFTOR] , target or system Adenosine receptor A2a (Homo sapiens, UniProt P29274). Also: assay procedure not described here.
> 30 µM

Find the measured AC50: item C=CCN1C[C@H](C(=O)N(CCCN(C)C)C(=O)NCC)C[C@@H]2c3cccc4[nH]cc(c34)C[C@H]21 [CABERGOLINE] , target or system Adenosine receptor A2a (Homo sapiens, UniProt P29274). Also: assay procedure not described here.
> 10 µM

Find the measured AC50: item CC(C[N+](C)(C)C)OC(N)=O (stereo unspecified) [BETHANECHOL] , target or system Adenosine receptor A2a (Homo sapiens, UniProt P29274). Also: assay procedure not described here.
> 10 µM

Find the measured AC50: item CCCc1nc(C(C)(C)O)c(C(=O)OCc2oc(=O)oc2C)n1Cc1ccc(-c2ccccc2-c2nnn[nH]2)cc1 [OLMESARTAN MEDOXOMIL] , target or system Adenosine receptor A2a (Homo sapiens, UniProt P29274). Also: assay procedure not described here.
> 10 µM

Find the measured AC50: item CCCN1C[C@H](CSC)C[C@@H]2c3cccc4[nH]cc(c34)C[C@H]21 [PERGOLIDE] , target or system Adenosine receptor A2a (Homo sapiens, UniProt P29274). Also: assay procedure not described here.
> 30 µM

Find the measured AC50: item CNC(C)CCC=C(C)C (stereo unspecified) [ISOMETHEPTENE] , target or system Adenosine receptor A2a (Homo sapiens, UniProt P29274). Also: assay procedure not described here.
> 30 µM

Find the measured AC50: item CC(=O)O[C@H]1C[C@@H]2CC[C@@H]3[C@H](CC[C@@]4(C)[C@H]3C[C@H]([N+]3(C)CCCCC3)[C@@H]4OC(C)=O)[C@@]2(C)C[C@@H]1N1CCCCC1 [VECURONIUM] , target or system Adenosine receptor A2a (Homo sapiens, UniProt P29274). Also: assay procedure not described here.
> 30 µM

Find the measured AC50: item CN(C)CCc1c[nH]c2ccc(C[C@H]3COC(=O)N3)cc12 [ZOLMITRIPTAN] , target or system Adenosine receptor A2a (Homo sapiens, UniProt P29274). Also: assay procedure not described here.
> 30 µM

Find the measured AC50: item Cc1ccc(S(=O)(=O)NC(=O)NN2CC3CCCC3C2)cc1 (stereo unspecified) [GLICLAZIDE] , target or system Adenosine receptor A2a (Homo sapiens, UniProt P29274). Also: assay procedure not described here.
> 10 µM

Find the measured AC50: item CCC(C)n1ncn(-c2ccc(N3CCN(c4ccc(OCC5COC(Cn6cncn6)(c6ccc(Cl)cc6Cl)O5)cc4)CC3)cc2)c1=O (stereo unspecified) [ITRACONAZOLE] , target or system Adenosine receptor A2a (Homo sapiens, UniProt P29274). Also: assay procedure not described here.
> 30 µM

Find the measured AC50: item `CCOC(=O)[C@H](CCc1ccccc1)N[C@@H](C)C(=O)N1C(=O)N(C)C[C@H]1C(=O)O` , target or system Adenosine receptor A2a (Homo sapiens, UniProt P29274). Also: assay procedure not described here.
> 30 µM

###

Molecular target: 5-hydroxytryptamine receptor 1A (Homo sapiens, UniProt P08908); also: assay procedure not described here
Sequence (P08908 whole entry): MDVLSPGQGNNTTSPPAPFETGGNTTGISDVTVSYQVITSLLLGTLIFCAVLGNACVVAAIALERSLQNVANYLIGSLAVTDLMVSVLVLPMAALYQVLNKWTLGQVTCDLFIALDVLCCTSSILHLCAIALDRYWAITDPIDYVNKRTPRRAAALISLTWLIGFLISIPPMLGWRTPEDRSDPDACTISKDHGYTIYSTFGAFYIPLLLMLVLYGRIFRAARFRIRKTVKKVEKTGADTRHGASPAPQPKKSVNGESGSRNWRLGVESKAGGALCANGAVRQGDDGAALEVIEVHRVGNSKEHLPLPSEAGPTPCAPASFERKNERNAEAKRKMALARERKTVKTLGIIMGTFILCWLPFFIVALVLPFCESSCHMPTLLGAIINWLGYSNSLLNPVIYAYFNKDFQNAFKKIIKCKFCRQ
Format: functional, cell-based
MEASUREMENT TYPE: AC50 (µM)
I only need the number, in µM, no unit after it.

Known AC50 results, listed for orientation:
1) C=CCN1C[C@H](C(=O)N(CCCN(C)C)C(=O)NCC)C[C@@H]2c3cccc4[nH]cc(c34)C[C@H]21 = 0.162
2) CN(C)CCC=C1c2ccccc2C(C)(C)c2ccccc21 = 26

Consider now this further molecule.
Please look up its AC50: CCN(CC)C(=O)N[C@H]1C[C@@H]2c3cccc4[nH]cc(c34)C[C@H]2N(C)C1 [TERGURIDE]
0.18

###

Record: AC50 reported on Mu-type opioid receptor (Homo sapiens, UniProt P35372).
Sequence (P35372 whole entry): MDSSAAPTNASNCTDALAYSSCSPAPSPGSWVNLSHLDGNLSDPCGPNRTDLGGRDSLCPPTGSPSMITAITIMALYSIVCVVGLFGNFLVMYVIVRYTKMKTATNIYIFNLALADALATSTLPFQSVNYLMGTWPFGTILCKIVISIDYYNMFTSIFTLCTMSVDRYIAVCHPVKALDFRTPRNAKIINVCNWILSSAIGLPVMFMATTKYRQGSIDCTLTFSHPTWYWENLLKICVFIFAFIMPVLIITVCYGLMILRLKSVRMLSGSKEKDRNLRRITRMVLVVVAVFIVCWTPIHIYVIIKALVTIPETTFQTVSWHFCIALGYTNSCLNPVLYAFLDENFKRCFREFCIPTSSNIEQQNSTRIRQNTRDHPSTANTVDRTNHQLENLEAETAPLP

Known AC50 results, listed for orientation:
1. CC=CC(=O)N(CC)c1ccccc1C = > 30 µM
2. CC(=O)O[C@H]1CC[C@@]2(C)C(=CC[C@@H]3[C@@H]2CC[C@]2(C)C(c4cccnc4)=CC[C@@H]32)C1 [ABIRATERONE ACETATE] = > 30 µM

Consider now this further compound.
Please look up its AC50: `C[C@](N)(Cc1ccc(O)c(O)c1)C(=O)O`
> 30 µM

###

Target: Cholecystokinin receptor type A (Homo sapiens, UniProt P32238); also: assay procedure not described here
Sequence (P32238 whole entry): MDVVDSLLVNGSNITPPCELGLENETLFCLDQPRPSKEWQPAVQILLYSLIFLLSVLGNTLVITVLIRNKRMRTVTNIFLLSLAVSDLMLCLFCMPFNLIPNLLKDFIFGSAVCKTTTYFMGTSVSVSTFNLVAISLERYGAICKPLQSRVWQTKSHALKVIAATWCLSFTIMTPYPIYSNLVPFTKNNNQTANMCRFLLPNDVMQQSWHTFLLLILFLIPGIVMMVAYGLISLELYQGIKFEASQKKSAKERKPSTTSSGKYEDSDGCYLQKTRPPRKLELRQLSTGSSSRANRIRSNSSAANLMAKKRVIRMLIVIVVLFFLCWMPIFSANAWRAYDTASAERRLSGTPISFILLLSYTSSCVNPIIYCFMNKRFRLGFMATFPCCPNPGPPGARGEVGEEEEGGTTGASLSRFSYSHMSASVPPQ
MEASUREMENT TYPE: AC50

1. CC(=O)O[C@H]1CC[C@@]2(C)C(=CC[C@@H]3[C@@H]2CC[C@]2(C)C(c4cccnc4)=CC[C@@H]32)C1 [ABIRATERONE ACETATE] = > 30 µM
2. O=C(O)CCCCCCCC(=O)O [AZELAIC ACID] = > 10 µM

Please look up its AC50: CCCN1C[C@H](CSC)C[C@@H]2c3cccc4[nH]cc(c34)C[C@H]21 [PERGOLIDE]
> 30 µM

Please look up its AC50: NCC(CC(=O)O)c1ccc(Cl)cc1 (stereo unspecified) [BACLOFEN]
> 30 µM

Please look up its AC50: CNC1Cc2ccccc2N(C)c2ccccc21 (stereo unspecified) [METAPRAMINE]
> 30 µM

Please look up its AC50: CCN1CCN(C(=O)N[C@@H](C(=O)N[C@@H]2C(=O)N3C(C(=O)O)=C(CSc4nnnn4C)CS[C@H]23)c2ccc(O)cc2)C(=O)C1=O [CEFOPERAZONE]
> 30 µM
